experiment: yeast display, Sf9 membrane polyspecificity reagent, FACS + sequencing; frameworks hold sequencing errors
VALUE_TYPE: polyreactivity (PSR sort gate)

Below, each entry is followed by its recorded polyreactivity (PSR sort gate) result.
PRIMARY_SEQUENCE	polyreactivity (PSR sort gate)
QVQLVESGGGLVQAGGSLRLSCAASGSIFYPYAMGWYRQAPGKERELVAAISWSGTRTYYADSVKGRFTISRDNAKNTVYLQMNSLKPEDTAVYYCAAYLPGYREQVDTNSWGQGTQVTVSS	low polyreactivity
QVQLVESGGGLVQAGGSLRLSCAASGFTFGPYAMGWYRQAPGKERELVAGITWSGASTYYADSVKGRFTISRDNAKNSVYLQMNSLKPEDTAVYYCARYYRLGSRYDYWGQGTQVTVSS	low polyreactivity
QVQLVESGGGLVQAGGSLRLSCAAYGFTFGVYALGWYRQAPGKERELVAAISRIGGRTYYADSLKGRYTISRDNAKNTVYVQMNSLKPEDTAVYYCAESPRQGMYYWGQGTQVTVSS	high polyreactivity
QVQLVESGGGLVQAGGSLRLSCAASGYTFYKYAMGWYRQAPGKEREFVADITQSGGSTYYADSVKGRFTISRDNAKNTVYLQMNSLKPEDTAVYYCNAAYSYRPDPKGYDYWGQGTQVTVSS	low polyreactivity

Give polyreactivity (PSR sort gate) for all sequences that follow.
1. QVQLVESGGGLVQAGGSLRLSCAASGSNFSYYTMGWYRRATGKERELVAGITWSGGGTSYADSVKGRFTISRDNAKNTVYVQMNSLKPEDTAVYYCAAVDIGRYYRLDYWGQGTQVTVSS
2. QVQLVESGGGLVQAGGTLRLSCAASGNTFRYYAMGWYRQSPGKERELVARITGRAGSTYYADSVKGRFTISRDNAKKTVYLQMNSLKPEDTAVYYCAAEFYYGFDYWGQGTQVTVSS
3. QVQLVESGGGLVQAGGSLRLSCAASGSTFLYYAMGWSRQAPGKEMELVAAISGSGGSTYYADSVKGRFTISRDNAKNTVYLQMNSLKPEDTAVYYCNAVARRHGLGPYDYWGQGTQVTVSS
4. QVQLVESAGGLVQAGGSLSLSCAASGRIFYSYAMGWYRQAPGKERELVAAISSAGSTYYADSVKGRFTMSRDNEKNTVYLQTNSLKPEDTAVYYCAAYRAGNSYYPRLNYWGQGTQVTVSS
5. QVQLVESGGGLVQEGGSLRLICAASGSILGSNAMGWYRQAPGKEREFVAAITWTGGSTYYADSVKGRFTISRDNAKNTVYLQMNSLKREDTAVYYCAKDVKYVKMDYWGQGTQVTVSS
6. QVQLVESGGGLVQAGGSLRLSCAASGSILYVYAMGWYRQAPGKEWELVAVITSGGSTNYADSVKGRFTISRDNAKNTVYLQMNSLKPEDTAVYYCAADPYSVYGGDYWGQGTQVTVSS
7. QVQLVESGGGLVQAGGSLRLSCAASGFIFSNNAMGWSRQAPGKERELVAAITSSGGRTYYADSVKGRFTISRDNAKNTVYLLMNSLKPEDTAVYYCAAARYDIMGYWGQGTQVTVSS

Solution:
1: low polyreactivity; 2: high polyreactivity; 3: high polyreactivity; 4: high polyreactivity; 5: low polyreactivity; 6: low polyreactivity; 7: high polyreactivity

----------
experiment: yeast display, Sf9 membrane polyspecificity reagent, FACS + sequencing; frameworks hold sequencing errors

PRIMARY_SEQUENCE	polyreactivity (PSR sort gate)
QVQLVESGGGLVQAGGSLRLSCAASGRTFYVYDMGWYRQAPGKERELVAAISTNYADSVKGRFTISRDNAKNTVYLQMNSLNPEDTAVYYCAADDIHYVIHAYYSSGVDYWGQGTQVTVSS	low polyreactivity
QVQLVESGGGLVHAGGSLRLSCAASGSTFLSYAMGWYRQAPGKEREFVAAISWSDVNTYYADSVKGRFTISRDNAKNTVYLQMISLKPEDTAVYYCAAYYPSHDYSGFWSDTYEYWGQGTQVTVSS	low polyreactivity
